These entries and their values trace back to patent US20200002432A1.

# experimental target: T1, human CD98 ECD (huCD98 ECD) (Homo sapiens, UniProt P08195)
# T1 construct: His6 (with AAA linker) (C)
# T1 sequence (P08195 with tags, fused parts or gaps): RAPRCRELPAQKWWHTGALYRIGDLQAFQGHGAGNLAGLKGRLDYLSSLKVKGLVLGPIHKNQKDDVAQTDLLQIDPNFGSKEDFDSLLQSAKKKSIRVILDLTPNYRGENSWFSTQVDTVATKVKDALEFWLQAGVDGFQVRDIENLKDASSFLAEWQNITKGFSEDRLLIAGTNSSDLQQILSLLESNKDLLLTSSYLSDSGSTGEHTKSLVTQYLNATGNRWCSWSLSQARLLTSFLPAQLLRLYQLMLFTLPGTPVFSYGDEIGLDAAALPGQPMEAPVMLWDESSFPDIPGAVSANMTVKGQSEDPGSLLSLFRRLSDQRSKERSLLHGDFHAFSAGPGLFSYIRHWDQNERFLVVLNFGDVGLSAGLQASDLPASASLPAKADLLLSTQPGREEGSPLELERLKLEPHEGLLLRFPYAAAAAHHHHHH
# method summary: Biacore surface plasmon resonance binding kinetics, anti-Fc capture
# test parameters: framework re-engineered mAbs, Table 24
Recorded ka, huCD98 ECD by entry
Report the value in M⁻¹ s⁻¹ with no unit label.

Recorded ka, huCD98 ECD, per entry:
molecule: huAb107: humanized framework engineered anti-CD98 antibody; heavy chain variable SEQ ID NO: 114, light chain variable SEQ ID NO: 112 (antibody, V domains shown) VH: EVQLVESGGGLVQPGGSLRLSCAASGFTFSDYTMAWVRQAPGKGLEWVATIIYSGRGTYYRDAVKGRFTISRDNAKNTLYLQMNSLRAEDTAVYYCARQSDDTYYYWGYFDYWGQGTMVTVSS VL: DIVMTQTPLSLPVTPGEPASINCKSSQSLLFSGNQKNYLAWYLQKPGQSPQLLIYWASTRQSGVPDRFSGSGSGTDFTLKISRVEAEDVGIYYCQQYYDVPYTFGQGTKLEIK
unit abbreviation: M⁻¹ s⁻¹
ka, huCD98 ECD: 110000
//
molecule: huAb101: humanized framework engineered anti-CD98 antibody; heavy chain variable SEQ ID NO: 106, light chain variable SEQ ID NO: 107 (antibody, V domains shown) VH: EVQLVESGGGLVKPGGSLRLSCATSGFTFIDYYMSWVRQAPGKGLEWLGFIRNKANRYTTEYSASVKGRFTISRDNSKSILYLQMNSLKTEDTAVYYCTRDRPAWFVYWGQGTLVTVSS VL: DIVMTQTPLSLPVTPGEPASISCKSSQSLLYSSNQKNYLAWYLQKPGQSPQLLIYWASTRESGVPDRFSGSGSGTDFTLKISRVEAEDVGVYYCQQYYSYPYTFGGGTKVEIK
unit abbreviation: M⁻¹ s⁻¹
ka, huCD98 ECD: 290000
//
molecule: huAb105: humanized framework engineered anti-CD98 antibody; heavy chain variable SEQ ID NO: 111, light chain variable SEQ ID NO: 112 (antibody, V domains shown) VH: EVQLVESGGGLVQPGGSLRLSCAASGFTFSDYTMAWVRQAPGKGLEWVATIIYSGRGTYYRDAVKGRFTISRDNAKNTLYLQMNSLRAEDTAVYYCARQSDHTYYYWGYFDYWGQGTMVTVSS VL: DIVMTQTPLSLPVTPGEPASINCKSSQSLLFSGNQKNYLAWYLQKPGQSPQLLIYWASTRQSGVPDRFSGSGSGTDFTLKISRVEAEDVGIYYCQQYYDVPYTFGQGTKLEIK
unit abbreviation: M⁻¹ s⁻¹
ka, huCD98 ECD: 140000
//
molecule: huAb109: humanized framework engineered anti-CD98 antibody; heavy chain variable SEQ ID NO: 116, light chain variable SEQ ID NO: 117 (antibody, V domains shown) VH: EVQLVESGGGLVQPGGSLRLSCAASGFTFSDYTMAWVRQAPGKGLEWVATIIYDARGTYYRDAVKGRFTISRDNAKNTLYLQMNSLRAEDTAVYYCARQSDDTYYYWGYFDYWGQGTMVTVSS VL: DIVMTQTPLSLPVTPGEPASINCKSSQSLLFSGNQKNYLAWYLQKPGQSPQLLIYWASTRQSGVPDRFSGSGSGTDFTLKISRVEAEDVGIYYCQQYYSSPYTFGQGTKLEIK
unit abbreviation: M⁻¹ s⁻¹
ka, huCD98 ECD: 160000

Here is the next item to consider.
# input Return reported ka, huCD98 ECD. Input molecule: huAb103: humanized framework engineered anti-CD98 antibody; heavy chain variable SEQ ID NO: 109, light chain variable SEQ ID NO: 107 (antibody, V domains shown) VH: EVQLVESGGGLVKPGGSLRLSCATSGFTFIDYYMSWVRQAPGKGLEWLGFIRNKAYGYTTEYSASVKGRFTISRDNSKSILYLQMNSLKTEDTAVYYCTRDRPAWFVYWGQGTLVTVSS VL: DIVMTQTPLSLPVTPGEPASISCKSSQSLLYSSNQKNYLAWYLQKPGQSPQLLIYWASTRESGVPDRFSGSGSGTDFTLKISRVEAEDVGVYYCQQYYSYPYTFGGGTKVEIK
# output 180000
